- System under test: T1, Pum-HD (Drosophila melanogaster, UniProt P25822 1093-1426)
- T1 sequence: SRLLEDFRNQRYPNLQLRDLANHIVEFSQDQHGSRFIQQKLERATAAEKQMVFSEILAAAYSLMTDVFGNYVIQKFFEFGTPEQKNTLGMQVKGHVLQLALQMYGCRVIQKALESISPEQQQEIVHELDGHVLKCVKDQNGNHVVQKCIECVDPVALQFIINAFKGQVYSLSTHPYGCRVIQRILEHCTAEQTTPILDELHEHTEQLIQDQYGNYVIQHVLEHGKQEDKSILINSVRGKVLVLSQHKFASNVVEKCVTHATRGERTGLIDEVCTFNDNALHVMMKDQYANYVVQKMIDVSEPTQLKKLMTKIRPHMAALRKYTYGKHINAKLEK
- Method: ITC
pKd: −log10 of the molar value.
Measurement name: pKd

{"Binder": "UGUACAUA (ssRNA) [BoxB]", "Obs value": 8.09}
